- target.or.system: Human VDR (Homo sapiens, UniProt P11473)
- Sequence (P11473 1-427): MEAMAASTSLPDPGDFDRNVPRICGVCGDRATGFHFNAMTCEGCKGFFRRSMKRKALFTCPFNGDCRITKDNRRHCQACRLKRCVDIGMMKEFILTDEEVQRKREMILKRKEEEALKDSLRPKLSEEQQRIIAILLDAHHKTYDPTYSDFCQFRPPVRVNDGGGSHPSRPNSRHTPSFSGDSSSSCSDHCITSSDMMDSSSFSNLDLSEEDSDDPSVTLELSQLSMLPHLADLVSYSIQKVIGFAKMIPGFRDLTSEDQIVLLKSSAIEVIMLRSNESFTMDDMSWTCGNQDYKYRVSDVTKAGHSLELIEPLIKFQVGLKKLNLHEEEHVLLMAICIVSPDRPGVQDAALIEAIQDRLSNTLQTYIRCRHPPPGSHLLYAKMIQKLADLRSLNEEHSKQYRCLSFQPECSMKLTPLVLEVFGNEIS
- assay.summary: luciferase reporter transactivation assay in HepG2-NTCP cells, full-length hVDR with CYP3A4-PXRE-Luc
- setup.conditions: HepG2-NTCP cells, luciferase reporter; unit not given; also cells saying No effect
reported.endpoint: Human VDR EC50 ± SD

# compound, result
measured = [
    ("C[C@H](CCC(=O)NCCS(=O)(=O)O)[C@H]1CC[C@H]2[C@@H]3CC[C@@H]4C[C@H](O)CC[C@]4(C)[C@H]3CC[C@]12C [Taurolithocholic acid]", "No effect"),
    ("Clc1cc2c(cc1Cl)Oc1cc(Cl)c(Cl)cc1O2 [2,3,7,8-Tetrachlorodibenzo-p-dioxin, 2,3,7,8-tetrachlorodibenzo-p-dioxin]", "No effect"),
    ("C[C@H](CCC(=O)O)[C@H]1CC[C@H]2[C@@H]3CC[C@@H]4C[C@H](OS(=O)(=O)O)CC[C@]4(C)[C@H]3CC[C@]12C [Lithocholic acid 3-sulfate]", "No effect"),
]

====

- target.or.system: Sea lamprey VDR (Petromyzon marinus)
- Sequence (Q7ZZY9 92-406): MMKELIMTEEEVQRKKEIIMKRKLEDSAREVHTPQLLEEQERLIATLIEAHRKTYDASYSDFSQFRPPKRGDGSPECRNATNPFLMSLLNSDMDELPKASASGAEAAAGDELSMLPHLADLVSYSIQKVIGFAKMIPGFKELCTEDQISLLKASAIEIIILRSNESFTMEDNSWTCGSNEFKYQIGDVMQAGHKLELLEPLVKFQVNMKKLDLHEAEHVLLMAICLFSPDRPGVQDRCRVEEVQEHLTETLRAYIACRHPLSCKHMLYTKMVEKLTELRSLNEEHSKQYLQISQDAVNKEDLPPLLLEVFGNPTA
- Type: cell-based
- setup.conditions: screening for activators, at least three concentrations of each drug
reported.endpoint: Effect on sea lamprey VDR

Known results for molecules:
# molecule, result
measured = [
    ("CC(C)=CCC/C(C)=C/CC/C(C)=C/CC/C(C)=C/CC1=C(C)C(=O)c2ccccc2C1=O", "No effect"),
    ("C[C@H](CCC(=O)NCCS(=O)(=O)O)[C@H]1CC[C@H]2[C@@H]3CC[C@@H]4C[C@H](OS(=O)(=O)O)CC[C@]4(C)[C@H]3CC[C@]12C [Taurolithocholic acid 3-sulfate]", "No effect"),
    ("C[C@]12CC[C@H](O)C[C@@H]1CC[C@@H]1[C@@H]2CC[C@]2(C)C=CC[C@@H]12", "No effect"),
    ("CC(=O)[C@H]1CC[C@H]2[C@@H]3CC[C@@H]4C[C@H](O)CC[C@]4(C)[C@H]3CC[C@]12C", "No effect"),
    ("C[C@H](CCC(=O)O)[C@H]1CC[C@H]2[C@@H]3[C@H](O)[C@@H](O)[C@@H]4C[C@H](O)CC[C@]4(C)[C@H]3CC[C@]12C", "No effect"),
    ("C[C@]12CC[C@@H]3c4cc(O)c(O)cc4CC[C@H]3[C@@H]1CCC2=O [2-Hydroxyestrone]", "No effect"),
]

Give the value of Effect on sea lamprey VDR reported for the following: CC(CCC(O)C(CO)COS(=O)(=O)O)C1CCC2C3C(O)CC4CC(O)CCC4(C)C3CC(O)C12C (stereo not drawn) [5β-scymnol 27-sulfate] No effect

For the molecule C[C@]12CC[C@@H](O)C[C@@H]1CC[C@@H]1[C@@H]2CC[C@]2(C)[C@@H](O)CC[C@@H]12 [5a-Androstan-3a,17b-diol] , give its measured Effect on sea lamprey VDR value. No effect

Find the measured Effect on sea lamprey VDR of `C[C@]12CC[C@@H](O)C[C@H]1CC[C@@H]1[C@@H]2[C@@H](O)C[C@@]2(C)[C@H]1CC[C@]2(O)[C@@H](O)CO` and report it. No effect

====

- System: ethoxyresorufin O-deethylase (EROD) activity (CYP1A-like activity)
- assay.summary: EROD assay in zebrafish primary hepatocytes
- setup.conditions: zebrafish, pH 7.8
reported.endpoint: EC50 at 24 h
Provide the measurement as a number trailed by its unit.

Annotate the compound Clc1cc2c(cc1Cl)Oc1cc(Cl)c(Cl)cc1O2 [2,3,7,8-Tetrachlorodibenzo-p-dioxin, 2,3,7,8-tetrachlorodibenzo-p-dioxin] with its measured EC50 at 24 h. 0.15 nM

====

- Tested on: testosterone 6β-hydroxylation activity (CYP3A-like activity)
- assay.summary: testosterone hydroxylation (HPLC) in zebrafish primary hepatocytes
- setup.conditions: zebrafish
reported.endpoint: EC50 at 48 h (nM)
# value in nM; strip the unit string

Provide only the value of recorded EC50 at 48 h for Clc1cc2c(cc1Cl)Oc1cc(Cl)c(Cl)cc1O2 [2,3,7,8-Tetrachlorodibenzo-p-dioxin, 2,3,7,8-tetrachlorodibenzo-p-dioxin] 0.154

====

The reader will find reported EC50 values listed item by item below.
- System: testosterone 6β-hydroxylation activity (CYP3A-like activity)
- assay.summary: in vitro
- setup.conditions: zebrafish
Unit µM implied. Number only.

# compound, target.or.system, reported.endpoint, numeric.value
measured = [
    ("C[C@@]12CCC[C@H]1[C@@H]1CC[C@H]3C[C@H](O)CC[C@]3(C)[C@H]1CC2 [androstanol, 5α-androstan-3α-ol]", "testosterone 6β-hydroxylation activity (CYP3A-like activity)", "EC50", 20),
]

Now for a further compound.
Check the records and state EC50 for CCC1(c2ccccc2)C(=O)NC(=O)NC1=O [Phenobarbital] 928

====

- target.or.system: Human VDR (Homo sapiens, UniProt P11473)
- Sequence (P11473 1-427): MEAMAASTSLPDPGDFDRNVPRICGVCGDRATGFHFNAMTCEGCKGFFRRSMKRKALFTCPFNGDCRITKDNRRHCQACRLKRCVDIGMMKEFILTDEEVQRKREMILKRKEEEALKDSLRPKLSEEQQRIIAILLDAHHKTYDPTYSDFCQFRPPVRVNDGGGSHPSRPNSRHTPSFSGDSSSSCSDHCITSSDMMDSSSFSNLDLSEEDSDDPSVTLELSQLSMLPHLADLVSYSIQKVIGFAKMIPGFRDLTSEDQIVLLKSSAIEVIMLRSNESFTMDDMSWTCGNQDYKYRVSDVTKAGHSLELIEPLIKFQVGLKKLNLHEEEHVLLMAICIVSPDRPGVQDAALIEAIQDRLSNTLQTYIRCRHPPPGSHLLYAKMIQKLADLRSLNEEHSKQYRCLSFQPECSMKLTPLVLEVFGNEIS
- assay.summary: luciferase reporter transactivation assay in HepG2-NTCP cells, full-length hVDR with CYP3A4-PXRE-Luc
reported.endpoint: EC50
In your response, the unit should come after the numeric value.

# molecule, target.or.system, EC50
measured = [
    ("C=C1/C(=C\\C=C2/CCC[C@]3(C)[C@@H]([C@H](C)CCCC(C)C)CC[C@@H]23)C[C@@H](O)C[C@@H]1O [1α-Hydroxyvitamin D3]", "Human VDR (Homo sapiens, UniProt P11473)", "4.3 nM"),
]

Look up and report EC50, with Human VDR (Homo sapiens, UniProt P11473) as system, for C=C1/C(=C\C=C2/CCC[C@]3(C)[C@@H]([C@H](C)/C=C/[C@H](C)C(C)C)CC[C@@H]23)C[C@@H](O)C[C@@H]1O [1α-Hydroxyvitamin D2] 13 nM

====

- target.or.system: Zebrafish VDR (Danio rerio, UniProt Q9PTN2)
- Sequence (Q9PTN2 121-453): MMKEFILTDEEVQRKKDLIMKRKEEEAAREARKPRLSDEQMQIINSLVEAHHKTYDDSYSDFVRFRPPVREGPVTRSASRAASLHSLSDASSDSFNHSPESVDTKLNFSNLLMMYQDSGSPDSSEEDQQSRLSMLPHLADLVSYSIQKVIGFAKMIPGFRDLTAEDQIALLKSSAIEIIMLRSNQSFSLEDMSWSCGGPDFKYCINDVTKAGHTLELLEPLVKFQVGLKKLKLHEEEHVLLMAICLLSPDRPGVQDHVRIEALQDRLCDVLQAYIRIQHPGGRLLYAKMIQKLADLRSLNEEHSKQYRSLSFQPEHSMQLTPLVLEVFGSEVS
- assay.summary: luciferase reporter transactivation assay in HepG2-NTCP cells, GAL4/zfVDR LBD chimera with tk-UAS-Luc
- Format: cell-based
- setup.conditions: screening for activators, at least three concentrations of each drug
reported.endpoint: Effect on zebrafish VDR

# compound, Effect on zebrafish VDR
measured = [
    ("C[C@]12CC[C@@H](O)C[C@H]1CC[C@@H]1[C@@H]2[C@@H](O)C[C@@]2(C)[C@H]1CC[C@]2(O)C(=O)CO [Tetrahydrocortisol]", "No effect"),
    ("c1ccc2c(Cc3c[nH]c4ccccc34)c[nH]c2c1", "No effect"),
    ("C[C@H](CCC(=O)O)[C@H]1CC[C@H]2[C@@H]3C(=O)C[C@@H]4C[C@H](O)CC[C@]4(C)[C@H]3CC(=O)[C@]12C", "No effect"),
    ("CC(C)=CCC/C(C)=C/CC/C(C)=C/CSCC(=O)O", "No effect"),
    ("CC(=O)[C@H]1CC[C@H]2[C@@H]3CC[C@@H]4C[C@H](O)CC[C@]4(C)[C@H]3CC[C@]12C", "No effect"),
]

Using known records, supply Effect on zebrafish VDR for C[C@]12CC[C@@H](O)C[C@@H]1CC[C@@H]1[C@@H]2[C@@H](O)C[C@]2(C)[C@@H](C(=O)CO)CC[C@@H]12 [5a-Pregnan-3a,11b,21-triol-20-one] No effect
